Reported IC50, Abeta x-40 in mouse cortical neurons by item:
- Assayed System: BACE1 in primary mouse cortical neurons (mouse, UniProt P56818 46-501)
- Sequence (P56818 46-501): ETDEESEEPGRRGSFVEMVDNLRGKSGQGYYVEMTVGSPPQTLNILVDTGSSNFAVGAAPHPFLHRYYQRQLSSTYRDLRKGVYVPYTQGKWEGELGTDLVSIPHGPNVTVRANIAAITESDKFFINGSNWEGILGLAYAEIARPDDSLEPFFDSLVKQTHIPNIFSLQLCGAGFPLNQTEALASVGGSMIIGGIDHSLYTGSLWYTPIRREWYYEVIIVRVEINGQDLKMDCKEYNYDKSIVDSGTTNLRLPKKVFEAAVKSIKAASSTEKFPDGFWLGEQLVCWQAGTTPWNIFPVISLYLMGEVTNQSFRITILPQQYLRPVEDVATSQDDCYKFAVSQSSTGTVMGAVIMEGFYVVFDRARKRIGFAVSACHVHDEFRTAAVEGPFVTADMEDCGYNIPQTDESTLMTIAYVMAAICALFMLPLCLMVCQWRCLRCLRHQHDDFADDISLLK
- Assay Procedure: cell-based or functional assay
Answer with a number only, understood to be in nM.

IC50, Abeta x-40 in mouse cortical neurons lookup needed for 5930 (antibody, V domains shown, anti-BACE1 IgG) VH: QVQLVQSGAEVKKPGSSVKVSCKASGGTLSGYAISWVRQAPGQGLEWMGNIIPGFGTANYAQKSQGRVTITADESTSTAYMELSSLRSEDTAVYYCARSGGTRYGMLDVWGQGTMVTVSS VL: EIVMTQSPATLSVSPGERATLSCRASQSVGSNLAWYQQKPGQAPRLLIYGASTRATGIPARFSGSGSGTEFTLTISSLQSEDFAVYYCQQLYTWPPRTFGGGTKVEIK , thanks.
7.52

Continuing:
IC50, Abeta x-40 in mouse cortical neurons lookup needed for 5986 (antibody, V domains shown, anti-BACE1 IgG) VH: QLQLQESGPGLVKPSETLSLTCTVSGGSISSSSYYWGWIRQPPGKGLEWIGQIYYSGSTFYNPSLKSRVTISVDTSKNQFSLKLSSVTAADTAVYYCARLGHGYSYFDLWGRGTLVTVSS VL: EIVLTQSPATLSLSPGERATLSCRASQSVSSYLAWFQQKPGQAPRLLIYDASNRATGIPARFSGSGSGTDFTLTISSLEPEDFAVYYCQQVYVWPPRTFGGGTKVEIK , thanks.
5.42
